# System Name: HLA-B*57:01
# Method Summary: IEDB peptide-MHC binding, purified MHC/competitive/fluorescence; filed as Kd, often an IC50 or EC50 that approximates it; bounds were set here for any values at or beyond the usual limits of such assays
# Conditions: source organism: Kurkino virus
Measurement Name: Kd

Enquiry: Endpoint output: Kd of `RRAYSGKQY` . Value?
Return: ≥ 20 µM

---

# System Name: HLA-B*14:02
# Method Summary: IEDB peptide-MHC binding, purified MHC/competitive/fluorescence; filed as Kd, often an IC50 or EC50 that approximates it; bounds were set here for any values at or beyond the usual limits of such assays
# Conditions: source organism: Brucella canis ATCC 23365
pKd: −log10 of the molar value.
Measurement Name: pKd

Enquiry: Param readout = pKd; param system = HLA-B*14:02; param query = `ETVWPFFYA` ; response: value
Return: ≤ 5.30

---

# System Name: HLA-B*57:01
# Method Summary: IEDB peptide-MHC binding, purified MHC/direct/fluorescence; filed as Kd, often an IC50 or EC50 that approximates it; bounds were set here for any values at or beyond the usual limits of such assays
# Conditions: source organism: Influenza A virus (A/Hong Kong/514/97(H5N1))
Measurement Name: pKd
FYI, pKd means -log10 of a concentration in mol per litre.

Enquiry: Given the sequence `VSDGGPNLY` , what is its reported pKd?
Return: 4.78

---

# System Name: HLA-B*15:01
# Method Summary: IEDB peptide-MHC binding, purified MHC/direct/fluorescence; filed as Kd, often an IC50 or EC50 that approximates it; bounds were set here for any values at or beyond the usual limits of such assays
# Conditions: source organism: Vibrio vulnificus
Measurement Name: Kd (nM)
Report the figure in nM without appending any unit label.

Enquiry: Looking for the measured Kd of `YQRALHTSI` , can you help?
Return: 96.2

---

# System Name: HLA-B*44:02
# Method Summary: IEDB peptide-MHC binding, purified MHC/direct/fluorescence; filed as Kd, often an IC50 or EC50 that approximates it; bounds were set here for any values at or beyond the usual limits of such assays
# Conditions: source organism: Vibrio vulnificus
pKd: −log10 of the molar value.
Measurement Name: pKd

Enquiry: If you can, please state the reported pKd value of `IEFIEVVRL` .
Return: ≤ 4.70

---

# System Name: HLA-B*07:02
# Method Summary: IEDB peptide-MHC binding, purified MHC/direct/fluorescence; filed as Kd, often an IC50 or EC50 that approximates it; bounds were set here for any values at or beyond the usual limits of such assays
# Conditions: source organism: Salmonella enterica subsp. enterica serovar Typhimurium
Measurement Name: Kd (µM)
State just the number; it will be interpreted in µM.

Enquiry: Name the recorded Kd for `RVNKGTGVK` .
Return: 12.6

---

# System Name: HLA-A*24:03
# Method Summary: IEDB peptide-MHC binding, purified MHC/direct/fluorescence; filed as Kd, often an IC50 or EC50 that approximates it; bounds were set here for any values at or beyond the usual limits of such assays
# Conditions: source organism: Pseudomonas aeruginosa UCBPP-PA14
pKd: −log10 of the molar value.
Measurement Name: pKd

Enquiry: Request - read-out pKd | tested on HLA-A*24:03 | sequence `SPADERAVA`
Return: ≤ 4.70

---

# System Name: HLA-B*15:01
# Method Summary: IEDB peptide-MHC binding, purified MHC/direct/fluorescence; filed as Kd, often an IC50 or EC50 that approximates it; bounds were set here for any values at or beyond the usual limits of such assays
# Conditions: source organism: Marburg virus - Musoke, Kenya, 1980
Measurement Name: pKd
Interpret pKd as the negative base-10 log of the concentration measured in mol/L.

Enquiry: Any idea what pKd was measured for `NQQVTNSKY` ?
Return: 7.10
